Target: Human Met (residues R974-S1390 with A1209G and V1290L) (Homo sapiens)
Experiment: Human Met kinase assay (33P radiometric, KinaseProfiler)
Details: 10 μM ATP, read-out: c-Met IC50
pIC50: −log10 of the molar value.

# structure notation, pIC50
rows = [
    ("COc1cc2nccc(Oc3ccc(NC(=O)C4(C(=O)Nc5ccc(F)cc5)CC4)cc3)c2cc1-c1ccc(C)o1", "7.00 to 8.00"),
    ("COc1cc2nccc(Oc3ccc(NC(=O)C4(C(=O)Nc5ccc(F)cc5)CC4)cc3)c2cc1C1(O)COC1", "≥ 8.00"),
    ("COc1cc2nccc(Oc3ccc(NC(=O)C4(C(=O)Nc5ccc(F)cc5)CC4)cc3Cl)c2cc1C(N)=O", "≥ 8.00"),
    ("Cc1cc2c(Oc3ccc(NC(=O)C4(C(=O)Nc5ccc(F)cc5)CC4)cc3)ccnc2cc1C(N)=O", "≥ 8.00"),
    ("COc1cc2nccc(Oc3ccc(NC(=O)C4(C(=O)Nc5ccc(F)cc5)CC4)cc3)c2cc1C(=O)NCCN1CCOCC1", "≥ 8.00"),
    ("O=C(O)c1ccc2c(Oc3ccc(NC(=O)C4(C(=O)Nc5ccc(F)cc5)CC4)cc3)ccnc2c1", "7.00 to 8.00"),
    ("NC(=O)c1cc2c(Oc3ccc(NC(=O)C4(C(=O)Nc5ccc(F)cc5)CC4)cc3)ccnc2cc1OCCCN1CCOCC1", "≥ 8.00"),
    ("NC(=O)c1cc2c(Oc3ccc(NC(=O)C4(C(=O)Nc5ccc(F)cc5)CC4)cc3)ccnc2cc1Br", "7.00 to 8.00"),
    ("COc1cc2nccc(Oc3ccc(NC(=O)C4(C(=O)Nc5ccc(F)cc5)CC4)cc3)c2cc1-c1ccn[nH]1", "≥ 8.00"),
    ("COc1cc2nccc(Oc3ccc(NC(=O)C4(C(=O)Nc5ccc(F)cc5)CC4)cc3)c2cc1S(N)(=O)=O", "≥ 8.00"),
    ("COc1cc2nccc(Oc3ccc(NC(=O)C4(C(=O)Nc5ccc(F)cc5)CC4)cc3)c2cc1-c1c(C)noc1C", "7.00 to 8.00"),
    ("COc1cc2nccc(Oc3ccc(NC(=O)C4(C(=O)Nc5ccc(F)cc5)CC4)cc3)c2cc1C(=O)NC[C@H]1CCCN1", "≥ 8.00"),
    ("COc1cc2nccc(Oc3ccc(NC(=O)C4(C(=O)Nc5ccc(F)cc5)CC4)cc3)c2cc1C1(O)CN(C(=O)OC(C)(C)C)C1", "7.00 to 8.00"),
    ("COC(=O)c1ccc2c(Oc3ccc(NC(=O)C4(C(=O)Nc5ccc(F)cc5)CC4)cc3)ccnc2c1", "7.00 to 8.00"),
]

Recorded values, source patent US11542259B2.
